B1: SPRY1 (parent)
chain: WIHRPGCRCKNSNTVYCKLESCPS

Variants of: B1
protocol: protein stability index of a GFP-peptide fusion (GPS, HEK-293T) (PSI 1-6); higher = more stable;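 further: lentivirally expressed fusions sorted by FACS into six bins by GFP to DsRed ratio, PSI derived from sequencing read proportions per bin multiplied by bin number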
measurement-conditions: c terminus: a fixed tail appended

# mut, protein stability index
records = [
    ("S12L", 3.01),
    ("S24K", 2.05),
    ("N13V", 2.04),
    ("P5M", 2.15),
    ("S21T", 2.17),
    ("H3N", 2.4),
    ("R4E", 3.48),
    ("C9I", 1.17),
]
